systemUnderTest: Sodium-dependent noradrenaline transporter (Homo sapiens)
Sequence (P23975 whole entry): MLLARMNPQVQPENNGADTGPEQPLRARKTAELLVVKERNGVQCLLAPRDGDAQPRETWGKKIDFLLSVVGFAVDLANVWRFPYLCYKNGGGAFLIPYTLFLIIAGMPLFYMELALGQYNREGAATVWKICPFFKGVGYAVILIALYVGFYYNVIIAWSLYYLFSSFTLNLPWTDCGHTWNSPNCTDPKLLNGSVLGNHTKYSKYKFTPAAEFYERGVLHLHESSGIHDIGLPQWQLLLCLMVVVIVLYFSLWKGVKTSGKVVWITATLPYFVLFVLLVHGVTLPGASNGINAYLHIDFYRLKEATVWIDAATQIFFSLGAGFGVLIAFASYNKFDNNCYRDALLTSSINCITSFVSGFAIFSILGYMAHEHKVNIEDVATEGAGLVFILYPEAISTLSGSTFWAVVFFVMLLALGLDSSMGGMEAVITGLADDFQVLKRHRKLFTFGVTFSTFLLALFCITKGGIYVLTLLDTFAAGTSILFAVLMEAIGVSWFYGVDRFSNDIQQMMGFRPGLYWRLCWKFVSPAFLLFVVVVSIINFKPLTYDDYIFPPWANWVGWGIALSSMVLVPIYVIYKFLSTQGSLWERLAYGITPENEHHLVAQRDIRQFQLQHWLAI
testDetails: Displacement of [N-methyl-3H]nisoxetine from human recombinant NET expressed in LLCPK cells by liquid scintillation counting
Assay type: cell-based
recordedEndpoint: Ki (nM)
Entry rule: numbers only, all in nM.

State the measured Ki (Sodium-dependent noradrenaline transporter (Homo sapiens)) of COC[C@H]1[C@@H]2CNC[C@@]21c1ccc(Cl)c(Cl)c1 (relative stereo)
4.57

----------
systemUnderTest: Sodium-dependent dopamine transporter (Rattus norvegicus)
Sequence (P23977 whole entry): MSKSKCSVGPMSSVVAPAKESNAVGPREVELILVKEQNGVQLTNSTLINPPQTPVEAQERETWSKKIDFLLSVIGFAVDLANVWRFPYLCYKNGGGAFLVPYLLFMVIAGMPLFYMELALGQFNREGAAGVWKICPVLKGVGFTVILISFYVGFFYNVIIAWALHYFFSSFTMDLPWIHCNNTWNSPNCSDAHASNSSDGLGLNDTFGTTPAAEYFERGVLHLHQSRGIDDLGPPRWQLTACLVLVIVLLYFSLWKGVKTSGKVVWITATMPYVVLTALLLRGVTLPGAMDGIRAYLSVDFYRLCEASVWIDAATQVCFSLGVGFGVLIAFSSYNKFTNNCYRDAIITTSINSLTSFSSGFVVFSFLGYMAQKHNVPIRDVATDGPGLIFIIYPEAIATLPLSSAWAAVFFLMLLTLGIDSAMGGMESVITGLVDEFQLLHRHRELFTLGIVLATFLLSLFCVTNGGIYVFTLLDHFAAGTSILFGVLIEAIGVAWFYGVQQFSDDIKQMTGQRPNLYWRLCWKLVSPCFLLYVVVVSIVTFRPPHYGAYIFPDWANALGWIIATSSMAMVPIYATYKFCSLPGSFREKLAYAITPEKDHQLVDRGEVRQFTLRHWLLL
recordedEndpoint: pKi
Please express pKi as -log10 of the molar concentration.

State the measured pKi (Sodium-dependent dopamine transporter (Rattus norvegicus)) of CCOC[C@H]1[C@@H]2CNC[C@@]21c1ccc(Cl)c(Cl)c1
7.87

----------
systemUnderTest: Sodium-dependent serotonin transporter (Homo sapiens, UniProt P31645)
Sequence (P31645 whole entry): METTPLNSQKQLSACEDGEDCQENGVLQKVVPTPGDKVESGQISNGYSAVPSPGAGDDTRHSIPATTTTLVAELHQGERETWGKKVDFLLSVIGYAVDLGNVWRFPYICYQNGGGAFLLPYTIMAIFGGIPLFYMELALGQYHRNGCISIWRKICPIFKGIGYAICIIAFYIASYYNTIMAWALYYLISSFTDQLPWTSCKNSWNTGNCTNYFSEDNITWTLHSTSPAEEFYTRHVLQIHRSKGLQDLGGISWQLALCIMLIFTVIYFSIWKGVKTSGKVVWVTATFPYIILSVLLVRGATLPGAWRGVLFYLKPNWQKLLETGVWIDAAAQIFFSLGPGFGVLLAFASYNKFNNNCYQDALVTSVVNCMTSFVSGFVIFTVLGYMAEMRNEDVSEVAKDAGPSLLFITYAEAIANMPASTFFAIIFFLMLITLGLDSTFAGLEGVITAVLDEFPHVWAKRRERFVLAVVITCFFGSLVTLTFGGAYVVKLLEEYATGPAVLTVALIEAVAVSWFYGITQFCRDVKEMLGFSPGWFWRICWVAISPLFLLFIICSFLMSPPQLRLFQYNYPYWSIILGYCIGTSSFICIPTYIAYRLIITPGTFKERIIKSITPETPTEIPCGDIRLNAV
testDetails: Displacement of [3H]citalopram from human recombinant SERT expressed in BacMam virus-transduced cells by scintillation proximity assay
Assay type: cell-based
Overview of reported pKi across a group of compounds:
Please express pKi as -log10 of the molar concentration.

1. FC(F)(F)COC[C@H]1[C@@H]2CNC[C@@]21c1ccc(Cl)c(Cl)c1 | 7.25

Check the records and state pKi for COC[C@H]1[C@@H]2CNC[C@@]21c1ccc(Cl)c(Cl)c1 (relative stereo)
9.12

Check the records and state pKi for CSC[C@H]1[C@@H]2CNC[C@@]21c1ccc(Cl)c(Cl)c1 (relative stereo)
9.40

Check the records and state pKi for Clc1ccc([C@]23CNC[C@H]2[C@@H]3COC2CCCC2)cc1Cl (relative stereo)
9.60

Check the records and state pKi for COCC[C@H]1[C@]2(C)CNC[C@]12c1ccc(Cl)c(Cl)c1 (relative stereo)
9.60

----------
Let's go through some pIC50 measurements on Cytochrome P450 3A4 (Homo sapiens) together.
Sequence (P08684 whole entry): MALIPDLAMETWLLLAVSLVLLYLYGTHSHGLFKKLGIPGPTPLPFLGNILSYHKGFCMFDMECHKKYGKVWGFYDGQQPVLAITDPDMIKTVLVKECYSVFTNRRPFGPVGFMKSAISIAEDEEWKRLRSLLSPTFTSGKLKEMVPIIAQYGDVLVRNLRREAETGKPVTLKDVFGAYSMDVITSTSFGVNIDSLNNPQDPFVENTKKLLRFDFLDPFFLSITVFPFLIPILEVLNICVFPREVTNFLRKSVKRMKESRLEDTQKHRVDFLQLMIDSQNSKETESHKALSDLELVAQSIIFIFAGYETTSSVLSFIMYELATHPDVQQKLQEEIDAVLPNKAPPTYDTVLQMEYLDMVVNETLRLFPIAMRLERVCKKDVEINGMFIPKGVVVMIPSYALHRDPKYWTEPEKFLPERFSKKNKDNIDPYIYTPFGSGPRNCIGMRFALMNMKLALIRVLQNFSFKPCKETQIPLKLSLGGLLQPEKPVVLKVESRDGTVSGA
pIC50: −log10 of the molar value.

1) CC(C)OC[C@@H]1[C@H]2CNC[C@]21c1ccc(Cl)c(Cl)c1 (stereo in doubt) | < 5.10
2) CCOC[C@H]1[C@@H]2CNC[C@@]21c1ccc(Cl)c(Cl)c1 (relative stereo) | < 5.05
3) COC[C@@H]1[C@H]2CNC[C@]21c1ccc2ccccc2c1 (stereo in doubt) | < 5.40
4) Clc1ccc([C@@]23CNC[C@@H]2[C@H]3COCC2CC2)cc1Cl (stereo in doubt) | < 5.00
5) Clc1ccc([C@@]2(COC3CCC3)[C@@H]3CNC[C@@H]32)cc1Cl | 5.52
6) CCOC[C@H]1[C@@H]2CNC[C@@]21c1ccc(Cl)c(Cl)c1 | < 5.05

In the following, a different molecule is considered.
State the measured pIC50 (Cytochrome P450 3A4 (Homo sapiens)) of COC[C@H]1[C@@H]2CNC[C@@]21c1ccc(Cl)c(Cl)c1 (relative stereo)
< 5.22

----------
systemUnderTest: Muscarinic acetylcholine receptor M4 (Homo sapiens, UniProt P08173)
Sequence (P08173 whole entry): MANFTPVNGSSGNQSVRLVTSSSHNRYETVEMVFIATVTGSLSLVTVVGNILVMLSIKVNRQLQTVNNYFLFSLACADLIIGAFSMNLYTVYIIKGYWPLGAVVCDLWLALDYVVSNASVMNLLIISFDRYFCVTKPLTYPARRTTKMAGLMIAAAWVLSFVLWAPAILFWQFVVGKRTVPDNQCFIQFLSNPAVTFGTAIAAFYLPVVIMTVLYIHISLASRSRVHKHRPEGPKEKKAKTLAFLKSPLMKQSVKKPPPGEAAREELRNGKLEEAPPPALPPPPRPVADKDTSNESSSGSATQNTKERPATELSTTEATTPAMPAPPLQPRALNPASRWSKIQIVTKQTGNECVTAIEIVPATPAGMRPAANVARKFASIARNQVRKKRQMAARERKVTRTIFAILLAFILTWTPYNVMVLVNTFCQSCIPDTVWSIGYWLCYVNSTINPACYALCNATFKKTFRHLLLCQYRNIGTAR
recordedEndpoint: pKi
Please express pKi as -log10 of the molar concentration.

Check the records and state pKi for CCOC[C@H]1[C@@H]2CNC[C@@]21c1ccc(Cl)c(Cl)c1
6.60
